The reported numbers originate from the supplement of paper PMC12669032.

Please go through the items and note down their growth AUC.
- System: Parabacteroides distasonis
- PROTOCOL: growth AUC relative to DMSO control (median of replicates) (fraction); higher = more growth (less inhibition), active = hit call of the paper
- SETUP CONDITIONS: 20 µM; 24 h
Give bare numbers.

>  <MOLECULE>
CCc1ccc(C(c2ccc(CC)cc2)C(Cl)Cl)cc1

>  <EXPERIMENTAL SYSTEM>
Parabacteroides distasonis

>  <growth AUC>
0.976

$$$$
>  <MOLECULE>
C=C1C[C@]23C[C@@]1(O)CC[C@H]2[C@@]12C=C[C@H](O)[C@@](C)(C(=O)O1)[C@H]2[C@@H]3C(=O)O

>  <EXPERIMENTAL SYSTEM>
Parabacteroides distasonis

>  <growth AUC>
0.778

$$$$
>  <MOLECULE>
O=C(O)C1(C(=O)Nc2ccc(Cl)cc2Cl)CC1

>  <EXPERIMENTAL SYSTEM>
Parabacteroides distasonis

>  <growth AUC>
0.909

$$$$
>  <MOLECULE>
CCCN(CCC)C(=O)SCC

>  <EXPERIMENTAL SYSTEM>
Parabacteroides distasonis

>  <growth AUC>
1.03

$$$$
>  <MOLECULE>
c1ccc(Sc2ccccc2)cc1

>  <EXPERIMENTAL SYSTEM>
Parabacteroides distasonis

>  <growth AUC>
1.01

$$$$

Please give growth AUC, item by item, for the list that follows.
1. CC(CNC(=S)[S-])NC(=S)[S-].[Zn+2] (mixture of isomers)
2. CCN(CC)c1nc(C)cc(=O)[nH]1

1. 1.01
2. 1
